experiment-description: Selectivity index, ratio of CC50 for mouse RAW264.7 cells to IC50 for Leishmania amazonensis WHOM/00 LTB 0016 promastigotes
Type: toxicity
experimental-parameters: read-out: Ratio CC50/IC50

{"columns": ["molecule", "selectivity ratio"],
 "data": [
  ["C/C(=N\\N=C1/SCC(=O)N1c1ccccc1)c1ccncc1", 0.2],
  ["CC(C)C1S/C(=N/N=C/c2ccccn2)NC1=O (centres undefined)", 6.4],
  ["C/C(=N\\N=C1/NC(=O)CS1)c1ccncc1", 0.3],
  ["O=C1CS/C(=N/N=C/c2ccccn2)N1", 6]
]}
